Provenance of the data: the RNAGym collection of RNA variant scans (doi:10.1021/acssynbio.7b00057)

B1: Pistol ribozyme (parent)
chain: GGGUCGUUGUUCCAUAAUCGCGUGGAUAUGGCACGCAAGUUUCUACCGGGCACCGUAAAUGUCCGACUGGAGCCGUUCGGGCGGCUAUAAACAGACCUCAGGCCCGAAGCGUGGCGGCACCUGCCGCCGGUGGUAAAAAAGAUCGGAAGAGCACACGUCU

Variants of: B1
experimentDescription: aptazyme ON/OFF ratio, guanine; higher = stronger switching; co-transcriptional cleavage with and without guanine
Here, each record is paired with measured aptazyme ON/OFF ratio data.
measuredEndpoint: aptazyme ON/OFF ratio

sequencechange="U7G U8A U10C U11C C12U C13U" resultnumber=1.13
sequencechange="U7A U8A G9U U10G" resultnumber=1.61
sequencechange="U7G G9A U10C C12G C13G" resultnumber=1.19
sequencechange="G9C U10A U11C C13G" resultnumber=1.04
sequencechange="U8G G9A U10A U11G C12U" resultnumber=1.3
sequencechange="G9A U10C U11C C13G" resultnumber=1.07
sequencechange="U7G U8G G9U U10C C12G" resultnumber=1.22
sequencechange="U7C G9U U10C U11A C12G C13U" resultnumber=1.15
sequencechange="U8C U10G U11G C12G C13A" resultnumber=1.16
sequencechange="U7G U8G G9U U11A C12U C13G" resultnumber=1.28
sequencechange="U7C U8G G9U U10C U11G C12G C13A" resultnumber=1.15
sequencechange="U7G U8C G9A U10A C12U" resultnumber=1.62
sequencechange="U7G U8C G9A U10G U11A C12U C13G" resultnumber=1.09
sequencechange="U8G G9C U10C U11A C12A C13G" resultnumber=1.07
sequencechange="G9A U11C C12G C13A" resultnumber=1.28
sequencechange="U7C G9A U10C U11G C12G" resultnumber=1.28
sequencechange="U8A G9C U10A U11G C12G C13A" resultnumber=1.15
sequencechange="U8G U10A U11G" resultnumber=1.34
sequencechange="U7G U8G G9U C12G" resultnumber=1.18
sequencechange="U10G U11A C12U C13U" resultnumber=1.36
sequencechange="U7A U8A G9C U10A C12A C13U" resultnumber=1.18
sequencechange="U7C U8A G9C U10C U11A C12G" resultnumber=1.03
sequencechange="U7A G9C U10A U11C C12G C13A" resultnumber=1.08
sequencechange="U7G U8A G9U U11C C12G C13G" resultnumber=1.04
sequencechange="U7A U8G U10A C12A C13U" resultnumber=1.48
sequencechange="U7C U8C G9U U10C C13U" resultnumber=3.5
sequencechange="U7A U8G G9C U10G U11A C12G" resultnumber=1.39
sequencechange="U8A G9C U10G U11G C12G C13A" resultnumber=1.14
sequencechange="U7C U10A U11A C12U C13G" resultnumber=1.16
sequencechange="U8C G9U U10A U11G C12G C13A" resultnumber=1.13
sequencechange="U7G U8G G9C U11A C12A C13A" resultnumber=1.14
sequencechange="U7G U10G C13A" resultnumber=1.29
sequencechange="U8A G9A U11C C12A C13A" resultnumber=1.07
sequencechange="U7A U8C G9A U11G C12G C13U" resultnumber=1.15
sequencechange="U7G U8G G9U U10A U11C C12A C13A" resultnumber=1.1
sequencechange="U7G U8C G9A U10C U11C C12G C13U" resultnumber=1.09
sequencechange="U7C U8G U10C U11A C12G C13G" resultnumber=1.12
sequencechange="U7G U8C G9A U10A U11A C12U C13U" resultnumber=1.14
sequencechange="U8A U10A U11A C13G" resultnumber=1.16
sequencechange="U7G U8G G9C U10G U11A C13U" resultnumber=1.12
sequencechange="U7A U8A G9C U10A C12G C13U" resultnumber=1.16
sequencechange="U8G G9A U10C U11C C12U C13G" resultnumber=1.04
sequencechange="U7C U8G U11G C12G C13U" resultnumber=1.05
sequencechange="U7G U8A U11C C12G" resultnumber=1.24
sequencechange="U8G G9U U10A C12U C13G" resultnumber=1.19
sequencechange="U7G U8G G9U U11C C12A C13U" resultnumber=1.23
sequencechange="U8C G9C U10G U11A C12A C13A" resultnumber=1.16
sequencechange="U8A G9C U11G C12G" resultnumber=1.16
sequencechange="U7C U8A G9C U10G U11G C12G" resultnumber=1.13
sequencechange="U8C G9U U10C C12A C13G" resultnumber=1.11
sequencechange="U7G U8A G9C U10G U11G C12A C13A" resultnumber=1.05
sequencechange="U7A U8G U11G C12A" resultnumber=1.31
sequencechange="U7G U8C G9A U11A C13U" resultnumber=1.21
sequencechange="U8G U10G U11G C13G" resultnumber=1.25
sequencechange="U7A U8G G9U U10G U11G C12U C13A" resultnumber=1.38
sequencechange="U7A G9A U10G U11A C13U" resultnumber=1.06
sequencechange="U7C U8C G9U U10G C12G C13G" resultnumber=1.07
sequencechange="U7C G9U U10A U11A C12U C13G" resultnumber=1.14
sequencechange="U8A G9A U11G C12A" resultnumber=1.08
sequencechange="U8A G9U U10G C12G C13U" resultnumber=1.28
sequencechange="U7C U8A G9C U11A C12U C13G" resultnumber=1.1
sequencechange="U8G G9U U10C U11A C13G" resultnumber=1.04
sequencechange="U7G G9U U10C U11C C12G C13G" resultnumber=1.2
sequencechange="U7A U8G U10A U11A C13G" resultnumber=1.38
sequencechange="U8C G9U U10G U11C C12A" resultnumber=1.62
sequencechange="U7G U8A G9A U10C U11A C13U" resultnumber=1.12
sequencechange="U7C U8G G9U U10C C12U C13G" resultnumber=1.32
sequencechange="U8C G9C U11G C12A" resultnumber=1.13
sequencechange="U7G U8A G9U U11A C12G C13U" resultnumber=1.04
sequencechange="U7C U8G G9A U10A U11A C12A C13G" resultnumber=1.2
sequencechange="U7C U8A U10C U11C C13A" resultnumber=1.04
sequencechange="U7G G9U U10G U11G C12U C13A" resultnumber=1.22
sequencechange="U7A U8A G9U U11A" resultnumber=0.956
sequencechange="U8G G9U C12G C13G" resultnumber=1.27
sequencechange="U10G U11C C12U C13U" resultnumber=1.11
sequencechange="G9U U10A U11A C12U C13G" resultnumber=1.7
sequencechange="U7G U8C G9A U10C U11G C12G" resultnumber=1.12
sequencechange="U7C G9C U11A C12A" resultnumber=1.07
sequencechange="G9C U10A U11C C12G C13A" resultnumber=1.32
sequencechange="U7A U8G G9U U10G U11G C12G C13A" resultnumber=1.16
sequencechange="U7C U8A G9C U10A U11A C12U" resultnumber=1.2
sequencechange="U7A U8A U10G U11G C12U C13G" resultnumber=1.26
sequencechange="U7A U8G G9A U11C C12U C13G" resultnumber=0.973
sequencechange="U7C U8C G9A U10A U11C C12G" resultnumber=1.23
sequencechange="U7A U10A C12U C13A" resultnumber=1.18
sequencechange="G9A U10G C12U" resultnumber=1.82
sequencechange="U7C U8A G9A U10G U11A C13A" resultnumber=1.04
sequencechange="U7A U8C G9C U11C C12A C13A" resultnumber=1.06
sequencechange="U7A U8C G9U C12U C13G" resultnumber=1.12
sequencechange="U7A U8A G9A U10A U11C C12G C13U" resultnumber=1.1
sequencechange="U7G U11A C12U C13U" resultnumber=1.28
